B1: Lysozyme C, P61626 (parent)
chain: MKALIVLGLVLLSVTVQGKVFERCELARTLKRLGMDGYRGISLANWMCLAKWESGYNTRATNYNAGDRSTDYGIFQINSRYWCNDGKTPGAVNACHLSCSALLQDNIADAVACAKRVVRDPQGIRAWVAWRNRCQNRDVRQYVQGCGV

Variants of: B1
Conditions: Homo sapiens; pH 2.7; 64.9 °C; Thermal; DSC; Gly-HCl 0.05 M; structure 1LZ1; whole UniProt chain shown
Classify by measured ddG of mutation (higher = less stable): MET if it is equal to or exceeds 0.4 kcal/mol, NOT MET if it is smaller.

Residue sequence: MKALIVLGLVLLSVTVQGKVFERCELARTLKRLGMDGYRGISLANWMCLAKWESGYNTRATNYNAGDRSTDYGIFQINSRYWCNDGKTPGAVNACHLSCSALLQDNIADAVACAKRVVRDPQGIRAWYAWRNRCQNRDVRQYVQGCGV [V128Y]
Label: NOT MET

Residue sequence: MKALIVLGLVLLSVTVQGKVFERCELARTLKRLGMDGYRGISLANWMCLAKWESGYNTRATNYNAGDRSTDYGIFQINSRYWCNDGKTPGADNACHLSCSALLQDNIADAVACAKRVVRDPQGIRAWVAWRNRCQNRDVRQYVQGCGV [V92D]
Label: MET

Residue sequence: MKALIVLGLVLLSVTVQGKVFERCELARTLKRLGMDGYRGISLANWMCLAKWESGYNTRATNYNAGDRSTDYGIFQINSRYWCNDGKTPGANNACHLSCSALLQDNIADAVACAKRVVRDPQGIRAWVAWRNRCQNRDVRQYVQGCGV [V92N]
Label: NOT MET

Residue sequence: MKALIVLGLVLLSVTVQGKDFERCELARTLKRLGMDGYRGISLANWMCLAKWESGYNTRATNYNAGDRSTDYGIFQINSRYWCNDGKTPGAVNACHLSCSALLQDNIADAVACAKRVVRDPQGIRAWVAWRNRCQNRDVRQYVQGCGV [V20D]
Label: MET

Residue sequence: MKALIVLGLVLLSVTVQGKVFERCELARTLKRLGMDGYRGISLANWMCLAKWESGYNTRATNYNAGDRSTDYGIFQINSRYWCNDGKTPGASNACHLSCSALLQDNIADAVACAKRVVRDPQGIRAWVAWRNRCQNRDVRQYVQGCGV [V92S]
Label: NOT MET

Residue sequence: MKALIVLGLVLLSVTVQGKVFERCELARTLKRLGMDGYRGISLANWMCLAKWESGYNTRATNYNAGDRSTDYGIFQINSRYWCNDGKTPGARNACHLSCSALLQDNIADAVACAKRVVRDPQGIRAWVAWRNRCQNRDVRQYVQGCGV [V92R]
Label: NOT MET

Residue sequence: MKALIVLGLVLLSVTVQGKVFERCELARTLKRLGMDGYRGISLANWMCLAKWESGYNTRATNYNAGDRSTDYGIFQINSRYWCNDGKTPGAVNACHLSCSALLQDNIADAVACAKRVVRDPQGIRAWRAWRNRCQNRDVRQYVQGCGV [V128R]
Label: NOT MET

Residue sequence: MKALIVLGLVLLSVTVQGKRFERCELARTLKRLGMDGYRGISLANWMCLAKWESGYNTRATNYNAGDRSTDYGIFQINSRYWCNDGKTPGAVNACHLSCSALLQDNIADAVACAKRVVRDPQGIRAWVAWRNRCQNRDVRQYVQGCGV [V20R]
Label: NOT MET

Residue sequence: MKALIVLGLVLLSVTVQGKSFERCELARTLKRLGMDGYRGISLANWMCLAKWESGYNTRATNYNAGDRSTDYGIFQINSRYWCNDGKTPGAVNACHLSCSALLQDNIADAVACAKRVVRDPQGIRAWVAWRNRCQNRDVRQYVQGCGV [V20S]
Label: MET

Residue sequence: MKALIVLGLVLLSVTVQGKVFERCELARTLKRLGMDGYRGISLANWMCLAKWESGYNTRATNYNAGDRSTDYGIFQINSRYWCNDGKTPGAYNACHLSCSALLQDNIADAVACAKRVVRDPQGIRAWVAWRNRCQNRDVRQYVQGCGV [V92Y]
Label: NOT MET

Form field: ddG of mutation (higher = less stable) at least 0.4 kcal/mol? Entry: MKALIVLGLVLLSVTVQGKNFERCELARTLKRLGMDGYRGISLANWMCLAKWESGYNTRATNYNAGDRSTDYGIFQINSRYWCNDGKTPGAVNACHLSCSALLQDNIADAVACAKRVVRDPQGIRAWVAWRNRCQNRDVRQYVQGCGV [V20N]
MET
